Biological target: Env of HIV-1 strain ZM53M.PB12 (HIV-1)
Test: cell-based or functional assay
Observation type: neutralization IC50

>  <Binder>
γ15κ18 (antibody, V domains shown) VH: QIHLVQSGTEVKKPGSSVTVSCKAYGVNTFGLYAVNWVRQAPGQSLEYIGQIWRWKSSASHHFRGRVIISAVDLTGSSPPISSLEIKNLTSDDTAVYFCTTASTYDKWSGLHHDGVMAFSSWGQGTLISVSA VL: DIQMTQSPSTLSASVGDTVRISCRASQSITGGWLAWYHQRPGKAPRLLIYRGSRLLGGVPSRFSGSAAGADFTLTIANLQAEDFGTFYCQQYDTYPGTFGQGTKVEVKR

>  <Obs value>
> 15 µg/mL

$$$$
>  <Binder>
γ23κ5 (antibody, V domains shown) VH: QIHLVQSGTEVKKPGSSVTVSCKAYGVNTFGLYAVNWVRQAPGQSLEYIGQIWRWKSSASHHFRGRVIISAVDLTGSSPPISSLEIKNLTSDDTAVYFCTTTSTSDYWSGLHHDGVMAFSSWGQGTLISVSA VL: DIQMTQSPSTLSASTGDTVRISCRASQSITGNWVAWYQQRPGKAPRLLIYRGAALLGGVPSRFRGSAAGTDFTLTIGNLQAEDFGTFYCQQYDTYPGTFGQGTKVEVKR

>  <Obs value>
5.88 µg/mL

$$$$
>  <Binder>
8ANC3484 (antibody, V domains shown) VH: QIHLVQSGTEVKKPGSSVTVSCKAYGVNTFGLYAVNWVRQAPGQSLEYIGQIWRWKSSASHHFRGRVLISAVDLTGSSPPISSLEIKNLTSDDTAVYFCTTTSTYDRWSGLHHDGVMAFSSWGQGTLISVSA VL: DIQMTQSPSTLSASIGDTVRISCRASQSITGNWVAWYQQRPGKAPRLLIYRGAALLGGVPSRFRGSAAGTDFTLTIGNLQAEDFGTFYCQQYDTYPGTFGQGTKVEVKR

>  <Obs value>
11.6 µg/mL

$$$$
>  <Binder>
γ22κ11 (antibody, V domains shown) VH: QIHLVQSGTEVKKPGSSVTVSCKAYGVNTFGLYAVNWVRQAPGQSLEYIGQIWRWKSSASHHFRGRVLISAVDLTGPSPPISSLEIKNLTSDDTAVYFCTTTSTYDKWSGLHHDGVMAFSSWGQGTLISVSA VL: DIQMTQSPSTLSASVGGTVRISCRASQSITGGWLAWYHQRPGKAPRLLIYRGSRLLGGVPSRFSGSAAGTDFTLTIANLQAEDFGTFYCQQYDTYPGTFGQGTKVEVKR

>  <Obs value>
> 15 µg/mL

$$$$
>  <Binder>
γ59κ18 (antibody, V domains shown) VH: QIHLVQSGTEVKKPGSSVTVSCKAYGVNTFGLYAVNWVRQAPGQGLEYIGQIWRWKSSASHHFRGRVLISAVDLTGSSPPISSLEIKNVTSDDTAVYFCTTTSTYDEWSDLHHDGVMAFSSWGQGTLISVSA VL: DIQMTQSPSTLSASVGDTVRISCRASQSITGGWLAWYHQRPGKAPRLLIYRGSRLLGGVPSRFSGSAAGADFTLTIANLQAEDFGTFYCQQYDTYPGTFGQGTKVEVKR

>  <Obs value>
> 15 µg/mL

$$$$
>  <Binder>
γ15κ3 (antibody, V domains shown) VH: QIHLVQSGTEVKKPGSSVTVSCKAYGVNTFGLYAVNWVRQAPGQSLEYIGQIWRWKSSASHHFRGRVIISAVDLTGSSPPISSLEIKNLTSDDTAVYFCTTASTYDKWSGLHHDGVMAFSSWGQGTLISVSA VL: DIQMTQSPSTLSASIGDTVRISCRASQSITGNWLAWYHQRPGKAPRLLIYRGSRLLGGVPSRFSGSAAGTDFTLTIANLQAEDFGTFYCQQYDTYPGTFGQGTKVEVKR

>  <Obs value>
> 15 µg/mL

$$$$
>  <Binder>
γ8κ11 (antibody, V domains shown) VH: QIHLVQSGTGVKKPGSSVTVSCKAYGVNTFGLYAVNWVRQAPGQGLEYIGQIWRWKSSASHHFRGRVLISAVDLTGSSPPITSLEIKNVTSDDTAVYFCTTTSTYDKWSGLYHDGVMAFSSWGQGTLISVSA VL: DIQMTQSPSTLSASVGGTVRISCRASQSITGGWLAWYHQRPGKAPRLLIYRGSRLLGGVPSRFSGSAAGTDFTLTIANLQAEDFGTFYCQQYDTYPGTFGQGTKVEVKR

>  <Obs value>
> 15 µg/mL

$$$$
>  <Binder>
γ4κ3 (antibody, V domains shown) VH: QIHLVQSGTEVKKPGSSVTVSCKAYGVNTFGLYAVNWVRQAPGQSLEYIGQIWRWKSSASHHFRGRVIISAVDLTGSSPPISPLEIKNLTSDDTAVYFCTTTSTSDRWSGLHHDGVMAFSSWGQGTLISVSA VL: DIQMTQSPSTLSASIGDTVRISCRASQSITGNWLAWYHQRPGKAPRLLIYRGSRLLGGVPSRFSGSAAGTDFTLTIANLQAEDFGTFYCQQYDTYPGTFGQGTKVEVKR

>  <Obs value>
> 15 µg/mL

$$$$
>  <Binder>
γ52κ5 (antibody, V domains shown) VH: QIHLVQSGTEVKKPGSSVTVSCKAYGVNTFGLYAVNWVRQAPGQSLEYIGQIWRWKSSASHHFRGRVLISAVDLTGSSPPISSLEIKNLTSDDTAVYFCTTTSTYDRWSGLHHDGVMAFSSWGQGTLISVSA VL: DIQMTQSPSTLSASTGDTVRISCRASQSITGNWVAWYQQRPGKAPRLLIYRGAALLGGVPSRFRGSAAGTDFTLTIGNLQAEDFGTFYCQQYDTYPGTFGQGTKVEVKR

>  <Obs value>
3.13 µg/mL

$$$$
>  <Binder>
γ52κ3 (antibody, V domains shown) VH: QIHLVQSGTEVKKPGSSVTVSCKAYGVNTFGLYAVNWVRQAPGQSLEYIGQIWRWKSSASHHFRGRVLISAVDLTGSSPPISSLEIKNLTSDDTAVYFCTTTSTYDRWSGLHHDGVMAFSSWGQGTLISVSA VL: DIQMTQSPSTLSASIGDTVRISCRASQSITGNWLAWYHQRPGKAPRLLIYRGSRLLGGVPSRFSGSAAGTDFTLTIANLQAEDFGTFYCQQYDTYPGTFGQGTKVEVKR

>  <Obs value>
> 15 µg/mL

$$$$
